- assay notes: IT pharmacokinetics of dutogliptin (1) and dutogliptin boronate (15)
- Type: in vivo, mouse
- test conditions: mouse, in vivo, 4.4 mg/kg, Lung concentration of dutogliptin, Mean
measurement type: concentration at 3 h (ng/g)
Numbers only, in ng/g.

Please fill in: concentration at 3 h reported for O=C(CN[C@@H]1CCNC1)N1CCC[C@H]1B(O)O = 6550

* * *

In what follows, each item is paired with its pIC50 for Human DPP4 (Homo sapiens (Human), UniProt P27487).
Answers are plain numbers, as −log10 of the molar value.

Use these answered entries as a reference point.
N#C[C@@H]1CCCN1C(=O)CNC12CC3C[C@H](CC(N)(C3)C1)C2 [Cpd 18]    7.42
N#C[C@@H]1C[C@H](F)CN1C(=O)CNC12CCC(C(=O)O)(CC1)CC2 [Cpd 16]    8.92
N[C@@H](CC(=O)N1CCn2c(C(F)(F)F)nc(C(=O)O)c2C1)Cc1cc(F)c(F)cc1F [Cpd 26]    9.10
CCOC(=O)C12CCC(NCC(=O)N3C[C@@H](F)C[C@H]3C#N)(CC1)CC2 [Cpd 2]    8.66
CC#CCn1c(N2CCC[C@@H](N)C2)cc(=O)n(Cc2cccc(C(=O)OC)c2)c1=O [Cpd 25]    8.22

Consider now this further compound.
The compound COC(=O)C12CCC(NCC(=O)N3C[C@@H](F)C[C@H]3C#N)(CC1)CC2 [Cpd 17] showed pIC50 equal to 9.00
